Tested on: 889142-216-R-J1-PDC complex spheroid viability
Experiment: Anticancer human tumor 889142-216-R-J1-PDC patient-derived bladder carcinoma cell line growth inhibition [POLQ]
Settings: second compound 3.16 µM; first compound 0.0316 µM; stronger effect = lower value
API: label(entry) gives TRUE if the entry's viability, T/C is strictly smaller than 50%; on equality or larger values it gives FALSE.

COMPOUND	TEST_SYSTEM	CAT
CCc1c2c(nc3ccc(O)cc13)-c1cc3c(c(=O)n1C2)COC(=O)[C@]3(O)CC + Cc1cccc(N(C)C(=O)C2C(O)CCN2c2nc(C)cc(C(F)(F)F)c2C#N)c1	889142-216-R-J1-PDC complex spheroid viability	TRUE
COc1cccc(OCCCN)c1-c1cc(Nc2cnc(C#N)cn2)n[nH]1 + Nc1ccc(C#CCN(C(=O)Cc2ncc(C(F)(F)F)cc2C(F)(F)F)c2ccc(F)cc2)nn1	889142-216-R-J1-PDC complex spheroid viability	TRUE
CCc1cc2c(N3CCc4c(cc(Cn5ccnc5)cc4-c4cn(C)nc4C(F)(F)F)C3=O)cc(C)nc2c(OC)n1 + COC1C(OC(N)=O)C(O)C(Oc2ccc3c(O)c(NC(=O)c4ccc(O)c(CC=C(C)C)c4)c(=O)oc3c2C)OC1(C)C	889142-216-R-J1-PDC complex spheroid viability	FALSE

Query: For this compound, is viability, T/C lower than 50%? CC(C)n1c(=O)n(C)c2cnc3cc(F)c(-c4ccc(OCCCN5CCCCC5)nc4)cc3c21 + COC1C(OC(N)=O)C(O)C(Oc2ccc3c(O)c(NC(=O)c4ccc(O)c(CC=C(C)C)c4)c(=O)oc3c2C)OC1(C)C
Response: FALSE

Query: For this compound, is viability, T/C lower than 50%? C#Cc1c(F)ccc2cc(O)cc(-c3ncc4c(N5CC6CCC(C5)N6)nc(OCC56CCCN5CC(F)C6)nc4c3F)c12 (stereo not given) + Cc1cccc(N(C)C(=O)C2C(O)CCN2c2nc(C)cc(C(F)(F)F)c2C#N)c1
Response: FALSE

====

Test system: 889142-216-R-J1-PDC complex spheroid viability
Assay: Anticancer human tumor 889142-216-R-J1-PDC cell line growth inhibition [POLQ];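 further: spheroids exposed to compounds for seven days; 100% = DMSO vehicle control viability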
Conditions: second compound 0.0316 µM; first compound 0.1 µM; stronger effect = lower value
Recorded viability, T/C by entry
Response body: numeric value in %, unit text excluded.

COMPOUND	viability, T/C (%)
CCCS(=O)(=O)Nc1ccc(F)c(C(=O)c2c[nH]c3ncc(-c4ccc(Cl)cc4)cc23)c1F + Nc1ccc(C#CCN(C(=O)Cc2ncc(C(F)(F)F)cc2C(F)(F)F)c2ccc(F)cc2)nn1	118

Query: For CCc1cc2c(N3CCc4c(cc(Cn5ccnc5)cc4-c4cn(C)nc4C(F)(F)F)C3=O)ccnc2c(OC)n1 + Nc1ccc(C#CCN(C(=O)Cc2ncc(C(F)(F)F)cc2C(F)(F)F)c2ccc(F)cc2)nn1 , write its viability, T/C.
Response: 105

Query: For COc1cc2cc(C(=O)CCC(=O)O)sc2cc1OC + Nc1ccc(C#CCN(C(=O)Cc2ncc(C(F)(F)F)cc2C(F)(F)F)c2ccc(F)cc2)nn1 , write its viability, T/C.
Response: 108

====

Test system: 889142-216-R-J1-PDC complex spheroid viability
Assay: Anticancer human tumor 889142-216-R-J1-PDC cell line growth inhibition [POLQ];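 further: spheroids exposed to compounds for seven days; 100% = DMSO vehicle control viability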
Settings: second compound 3.16 µM; first compound 0.0316 µM; stronger effect = lower value
Recorded viability, T/C by entry
Response body: numeric value in %, unit text excluded.

COMPOUND	TEST_SYSTEM	viability, T/C, %
Cn1ncnc1[C@H]1c2n[nH]c(=O)c3cc(F)cc(c23)N[C@@H]1c1ccc(F)cc1 + Nc1ccc(C#CCN(C(=O)Cc2ncc(C(F)(F)F)cc2C(F)(F)F)c2ccc(F)cc2)nn1	889142-216-R-J1-PDC complex spheroid viability	92.3

Query: For CC(C)n1c(=O)n(C)c2cnc3cc(F)c(-c4ccc(OCCCN5CCCCC5)nc4)cc3c21 + Cc1cccc(N(C)C(=O)C2C(O)CCN2c2nc(C)cc(C(F)(F)F)c2C#N)c1 , write its viability, T/C.
Response: 80.6

Query: For O=c1[nH]cc(F)c(=O)[nH]1 + COC1C(OC(N)=O)C(O)C(Oc2ccc3c(O)c(NC(=O)c4ccc(O)c(CC=C(C)C)c4)c(=O)oc3c2C)OC1(C)C , write its viability, T/C.
Response: 112

====

Test system: 889142-216-R-J1-PDC complex spheroid viability
Assay: Anticancer human tumor 889142-216-R-J1-PDC cell line growth inhibition [POLQ];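 further: spheroids exposed to compounds for seven days; 100% = DMSO vehicle control viability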
Settings: second compound 3.16 µM; first compound 10 µM; stronger effect = lower value
API: label(entry) gives Y if the entry's viability, T/C is strictly smaller than 40%; on equality or larger values it gives N.

Some solved entries appear below for comparison.
MOLECULE	CAT
CC1COCCN1c1cc(C2(S(C)(=N)=O)CC2)nc(-c2ccnc3[nH]ccc23)n1 (stereo not drawn) + Nc1ccc(C#CCN(C(=O)Cc2ncc(C(F)(F)F)cc2C(F)(F)F)c2ccc(F)cc2)nn1	N
O=c1[nH]cc(F)c(=O)[nH]1 + COC1C(OC(N)=O)C(O)C(Oc2ccc3c(O)c(NC(=O)c4ccc(O)c(CC=C(C)C)c4)c(=O)oc3c2C)OC1(C)C	N
CCc1cc2c(N3CCc4c(cc(Cn5ccnc5)cc4-c4cn(C)nc4C(F)(F)F)C3=O)ccnc2c(OC)n1 + COC1C(OC(N)=O)C(O)C(Oc2ccc3c(O)c(NC(=O)c4ccc(O)c(CC=C(C)C)c4)c(=O)oc3c2C)OC1(C)C	N
CCCS(=O)(=O)Nc1ccc(F)c(C(=O)c2c[nH]c3ncc(-c4ccc(Cl)cc4)cc23)c1F + Nc1ccc(C#CCN(C(=O)Cc2ncc(C(F)(F)F)cc2C(F)(F)F)c2ccc(F)cc2)nn1	N
CC1COCCN1c1cc(C2(S(C)(=N)=O)CC2)nc(-c2ccnc3[nH]ccc23)n1 (stereo not drawn) + COC1C(OC(N)=O)C(O)C(Oc2ccc3c(O)c(NC(=O)c4ccc(O)c(CC=C(C)C)c4)c(=O)oc3c2C)OC1(C)C	N
CC1COCCN1c1cc(C2(O)CC3CCC(C2)O3)c2cnn(-c3ccn[nH]3)c2n1 (stereo not drawn) + COC1C(OC(N)=O)C(O)C(Oc2ccc3c(O)c(NC(=O)c4ccc(O)c(CC=C(C)C)c4)c(=O)oc3c2C)OC1(C)C	Y
COc1cccc2c1C(=O)c1c(O)c3c(c(O)c1C2=O)CC(O)(C(=O)CO)CC3OC1CC(N)C(O)C(C)O1 (stereo not drawn) + Nc1ccc(C#CCN(C(=O)Cc2ncc(C(F)(F)F)cc2C(F)(F)F)c2ccc(F)cc2)nn1	Y
O=c1[nH]cc(F)c(=O)[nH]1 + Cc1cccc(N(C)C(=O)C2C(O)CCN2c2nc(C)cc(C(F)(F)F)c2C#N)c1	N

Query: For this molecule, is viability, T/C lower than 40%? CC1COCCN1c1cc(C2(O)CC3CCC(C2)O3)c2cnn(-c3ccn[nH]3)c2n1 (stereo not drawn) + Nc1ccc(C#CCN(C(=O)Cc2ncc(C(F)(F)F)cc2C(F)(F)F)c2ccc(F)cc2)nn1
Response: Y

Query: For this molecule, is viability, T/C lower than 40%? CCCS(=O)(=O)Nc1ccc(F)c(C(=O)c2c[nH]c3ncc(-c4ccc(Cl)cc4)cc23)c1F + COC1C(OC(N)=O)C(O)C(Oc2ccc3c(O)c(NC(=O)c4ccc(O)c(CC=C(C)C)c4)c(=O)oc3c2C)OC1(C)C
Response: Y

====

Test system: 889142-216-R-J1-PDC complex spheroid viability
Experiment: Anticancer human tumor 889142-216-R-J1-PDC cell line growth inhibition [POLQ];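 further: spheroids exposed to compounds for seven days; 100% = DMSO vehicle control viability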
Conditions: second compound 0.0316 µM; first compound 0.316 µM; stronger effect = lower value
API: label(entry) gives True if the entry's viability, T/C is strictly smaller than 90%; on equality or larger values it gives False.

Query: For this compound, is viability, T/C lower than 90%? C#Cc1c(F)ccc2cc(O)cc(-c3ncc4c(N5CC6CCC(C5)N6)nc(OCC56CCCN5CC(F)C6)nc4c3F)c12 (configuration not stated) + COC1C(OC(N)=O)C(O)C(Oc2ccc3c(O)c(NC(=O)c4ccc(O)c(CC=C(C)C)c4)c(=O)oc3c2C)OC1(C)C
Response: True

Query: For this compound, is viability, T/C lower than 90%? CCCS(=O)(=O)Nc1ccc(F)c(C(=O)c2c[nH]c3ncc(-c4ccc(Cl)cc4)cc23)c1F + Cc1cccc(N(C)C(=O)C2C(O)CCN2c2nc(C)cc(C(F)(F)F)c2C#N)c1
Response: False

Query: For this compound, is viability, T/C lower than 90%? O=c1[nH]cc(F)c(=O)[nH]1 + COC1C(OC(N)=O)C(O)C(Oc2ccc3c(O)c(NC(=O)c4ccc(O)c(CC=C(C)C)c4)c(=O)oc3c2C)OC1(C)C
Response: False

Query: For this compound, is viability, T/C lower than 90%? CCc1cc2c(N3CCc4c(cc(Cn5ccnc5)cc4-c4cn(C)nc4C(F)(F)F)C3=O)ccnc2c(OC)n1 + Nc1ccc(C#CCN(C(=O)Cc2ncc(C(F)(F)F)cc2C(F)(F)F)c2ccc(F)cc2)nn1
Response: False

Query: For this compound, is viability, T/C lower than 90%? O=C(c1cc(Cc2n[nH]c(=O)c3ccccc23)ccc1F)N1CCN(C(=O)C2CC2)CC1 + Nc1ccc(C#CCN(C(=O)Cc2ncc(C(F)(F)F)cc2C(F)(F)F)c2ccc(F)cc2)nn1
Response: True
